Taken from patent US20240141072A1.

Overview of reported pKd across a group of binders:
- TARGET OR SYSTEM: T1, biotinylated human DLL3 protein expressed as a human IgG1 fusion protein (human, UniProt Q9NYJ7 27-492, limits assumed, biotinylated)
- T1 sequence: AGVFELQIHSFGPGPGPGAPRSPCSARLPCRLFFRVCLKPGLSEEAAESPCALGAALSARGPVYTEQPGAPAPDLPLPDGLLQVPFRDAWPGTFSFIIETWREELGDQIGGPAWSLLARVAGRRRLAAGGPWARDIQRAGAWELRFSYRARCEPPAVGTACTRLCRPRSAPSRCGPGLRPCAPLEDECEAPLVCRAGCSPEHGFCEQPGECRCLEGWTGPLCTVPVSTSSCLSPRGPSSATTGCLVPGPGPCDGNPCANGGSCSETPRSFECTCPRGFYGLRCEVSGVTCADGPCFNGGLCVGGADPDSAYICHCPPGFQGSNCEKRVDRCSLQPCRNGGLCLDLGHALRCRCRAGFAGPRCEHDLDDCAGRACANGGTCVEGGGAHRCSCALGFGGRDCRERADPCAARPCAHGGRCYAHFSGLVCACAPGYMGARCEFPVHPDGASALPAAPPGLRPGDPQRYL
- PROTOCOL DETAILS: Octet BLI, single 50 nM
// returns pKd (minus log10 of molar concentration), number only

Consider the following illustrative entries.
{"BINDER": "1F08 anti-DLL3 trispecific protein (other, not shown: linker 1808, anti-albumin sdAb, linker 1808, anti-CD3 fragment, His6 1819) EVQLVESGGGLVQPGGSLTLSCVASGSTSSINAMAWYRRAPGKQRELVAGISSDGSKVYKDSVKGRFTISRDNAKNSVYLQMNSLRAEDTAVYYCYYFRNVSGSSMRYWGQGTLVTVSS", "REPORTED RESULT": 7.51}
{"BINDER": "3A02 anti-DLL3 trispecific protein (other, not shown: linker 1808, anti-albumin sdAb, linker 1808, anti-CD3 fragment, His6 1819) EVQLVESGGGLVQPGGSLTLSCAASGSSVSFLSLAWYRQAPGKKRELVAGISADGSTAYIDSVKGRFTISRDNAKNSVYLQMNSLRAEDTAVYYCYAYRWRTRYTYWGQGTLVTVSS", "REPORTED RESULT": 8.09}
{"BINDER": "1B03 anti-DLL3 trispecific protein (other, not shown: linker 1808, anti-albumin sdAb, linker 1808, anti-CD3 fragment, His6 1819) EVQLVESGGGLVQPGGSLTLSCVASGKTSSINAMAWYRRAPGKQRELVAGISSDGSKVYTDSVKGRFTISRDNAKNSVYLQMNSLRAEDTAVYYCYYFRTVSGSSARYWGQGTLVTVSS", "REPORTED RESULT": 8.06}

Query binder follows.
### Prompt Give the value of pKd reported for the following: 1H01 anti-DLL3 trispecific protein (other, not shown: linker 1808, anti-albumin sdAb, linker 1808, anti-CD3 fragment, His6 1819) EVQLVESGGGLVQPGGSLTLSCVASGSTSSINAMAWYRRAPGKQRELAAGISSDNSKVYADSVKGRFTISRDNAKNSVYLQMNSLRAEDTAVYYCYYFRTRSGSSMRYWGQGTLVTVSS
### Response 8.24
